Below, each entry is listed with its recorded cell viability.
Tested on: Calu-3
Experiment: cell viability relative to DMSO; higher = less toxic
Details: 72 h; 10000 nM

molecule | cell viability, %
COc1ccc(-n2c(SCCCN3C(=O)c4cccc5cccc(c45)C3=O)nnc2-c2ccncc2)cc1 | 71.3
CCOc1cc(C=O)ccc1O | 99.3
Cc1cc(C)cc(C(=O)N(C)[C@H](Cc2ccc(-c3ccccc3)cc2)C(=O)N[C@@H](Cc2c[nH]c3ccccc23)C(=O)O)c1 | 96.9
COc1ccc(C(=O)C2CCN(CC(=O)N(Cc3nc4c(c(=O)[nH]3)COCC4)CC3CC3)CC2)cc1 | 82.7
C[C@@H]1C(=O)O[C@H]2C[C@@]34[C@H]5C[C@@H](C(C)(C)C)[C@]36[C@@H](OC(=O)[C@@H]6O)O[C@@]4(C(=O)O5)[C@]21O [Ginkgolide A] | 105
CC(Cc1cccc(C(F)(F)F)c1)NCCOC(=O)c1ccccc1 (configuration not stated) | 104
Cc1ccc(-c2csc(NC(=O)c3ccccc3)n2)c(C)c1 | 98.3
CN(Cc1cccc(-c2ccccc2)c1)C(=O)Oc1ccc(-c2ccc(C(N)=O)cc2)cc1 | 99.4
N#C/C(=C\c1ccc(O)c(O)c1)C(N)=O | 112
Nc1nc(OCC2CCCCC2)c2nc[nH]c2n1 | 105
CC(C)N(CCC(=O)c1ccc2ccccc2c1)Cc1ccccc1 | 92.1
CCCc1c2oc(C(=O)O)cc(=O)c2cc2c(=O)cc(C(=O)O)n(CC)c12 | 98.4

----------
System: Calu-3
Test: cell viability relative to DMSO; higher = less toxic
Details: 72 h; 100 nM
Below, each entry is listed with its recorded cell viability.

molecule | cell viability [%]
CC(=O)C(=Cc1cc(O)c(O)c([N+](=O)[O-])c1)C(C)=O | 105
COc1cc2c(c(OC)c1OC)-c1c(cc3c(c1OC)OCO3)CC(C)C(C)C2 (stereo not given) | 94.5
COc1ccc2[nH]cc(C3=CCNCC3)c2c1 | 95.1
C[C@@H]1C(=O)O[C@H]2C[C@@]34[C@H]5C[C@@H](C(C)(C)C)[C@]36[C@@H](OC(=O)[C@@H]6O)O[C@@]4(C(=O)O5)[C@]21O [Ginkgolide A] | 96.4
COc1ccc(Cl)cc1[C@]1(F)C(=O)Nc2cc(C(F)(F)F)ccc21 | 96.3

----------
System: Vero E6
Test: cell viability relative to DMSO; higher = less toxic
Conditions: 72 h; 1 nM
reported_endpoint: cell viability (%)

compound | reported_endpoint | data_value
O=C(C[S+]([O-])Cc1ccco1)NC/C=C\COc1cc(CN2CCCCC2)ccn1 (centres undefined) [lafutidine] | cell viability | 101
Oc1ncnc2[nH]ncc12 [allopurinol] | cell viability | 107
Cc1cc(C)c2c(N)c(C(=O)NCc3ccc(Cl)cc3)sc2n1 | cell viability | 101
CC(C)N(CCC(=O)c1ccc2ccccc2c1)Cc1ccccc1 | cell viability | 96.2
NCC[C@H](O)C(=O)N[C@@H]1C[C@H](N)[C@@H](O[C@H]2O[C@H](CN)[C@@H](O)[C@H](O)[C@H]2O)[C@H](O)[C@H]1O[C@H]1O[C@H](CO)[C@@H](O)[C@H](N)[C@H]1O [amikacin] | cell viability | 94.8
CCCCNc1nc(N)c2[nH]c(=O)n(Cc3ccc(OCCN(C)C)nc3)c2n1 [DSR-6434] | cell viability | 97.6
Cc1cccc(-c2n[nH]cc2-c2ccc(F)c(-c3cnn(CCO)c3)c2)n1 | cell viability | 96.1
CC(C)(CO)[C@@H](O)C(=O)NCCC(=O)O [pantothenic-acid] | cell viability | 100
CCCCN1CCC(CNC(=O)c2c3n(c4ccccc24)CCCO3)CC1 [piboserod] | cell viability | 93.1

----------
Test system: Caco-2
Assay: cell viability relative to DMSO; higher = less toxic
Settings: 72 h; 1000 nM

compound | target_or_system | cell viability, %
O=C(Nc1ccc(Cl)cc1)Nc1ccc(Cl)c(Cl)c1 | Caco-2 | 104
CCCCOc1ccc(-c2cncc(C(=O)NCc3cccnc3N3CCOCC3)c2)cc1Cl | Caco-2 | 102
N#CC(c1ccc(Cl)cc1)c1c(Cl)cc(-n2ncc(=O)[nH]c2=O)cc1Cl (stereo not drawn) | Caco-2 | 86.3
C#C[C@]1(O)CC[C@H]2[C@@H]3CCc4cc(OC)ccc4[C@H]3CC[C@@]21C | Caco-2 | 100
COc1ccc(C2(O)CCC(N3CC[C@@H](NC(=O)CNC(=O)c4cccc(C(F)(F)F)c4)C3)CC2)cn1 (stereo partly drawn) | Caco-2 | 100
CCCc1nc(C(C)(C)O)c(C(=O)OCc2oc(=O)oc2C)n1Cc1ccc(-c2ccccc2-c2nnn[nH]2)cc1 | Caco-2 | 91.4
CCN1CCN(c2ccc(C(C)(C)NC(=O)c3cc4[nH]c5ccccc5c(=O)c4cc3F)cn2)CC1 | Caco-2 | 116
CN1C(C(=O)Nc2ccccn2)=C(O)c2sccc2S1(=O)=O | Caco-2 | 98.6
N[C@@H](CSS(=O)(=O)O)C(=O)O | Caco-2 | 100
CCCCN(CCCC)C(=O)CN1C[C@H](c2ccc3c(c2)OCO3)[C@@H](C(=O)O)[C@@H]1c1ccc(OC)cc1 | Caco-2 | 88.3
N#C/C(=C\c1ccc(O)c(O)c1)C(N)=O | Caco-2 | 92.2
CCCCCCCCCCCCCCOC(=O)c1cccnc1 [myristyl-nicotinate] | Caco-2 | 97.8
COc1ccc(CCN(C)CCCN2CCc3cc(OC)c(OC)cc3CC2=O)cc1OC | Caco-2 | 99.6
CC(C)[C@H](N)C(=O)OCCOCn1cnc2c(=O)nc(N)[nH]c21 | Caco-2 | 99.4
C[C@@H]1C(=O)O[C@H]2C[C@@]34[C@H]5C[C@@H](C(C)(C)C)[C@]36[C@@H](OC(=O)[C@@H]6O)O[C@@]4(C(=O)O5)[C@]21O [Ginkgolide A] | Caco-2 | 93.4
CN1C2CCC1CC(OC(c1ccccc1)c1ccc(Cl)cc1)C2 (stereo not drawn) | Caco-2 | 94.9
c1cnc2c([O][Ga]([O]c3cccc4cccnc34)[O]c3cccc4cccnc34)cccc2c1 [gallium-triquinolin-8-olate] | Caco-2 | 116
O=C1CC(=O)c2c(Cl)c(Cl)c(Cl)c(Cl)c21 | Caco-2 | 91.1

----------
Tested on: U2OS
Test: cell viability relative to DMSO; higher = less toxic
Settings: 72 h; 100 nM
Below, each entry is listed with its recorded cell viability.

compound | unit_tag | cell viability
CC(=O)c1cc([N+](=O)[O-])c(Sc2cccc(Cl)c2Cl)s1 [P5091] | % | 97.9
c1cnc2c([O][Ga]([O]c3cccc4cccnc34)[O]c3cccc4cccnc34)cccc2c1 [gallium-triquinolin-8-olate] | % | 100
CC(=O)NCCCOc1ccc(C(=O)N2CCC(N3C(=O)CCc4ccccc43)CC2)cc1 | % | 97.3
Cc1cc2c(OCC(CNC(C)(C)C)OC(=O)c3ccccc3)cccc2[nH]1 (stereo not drawn) [bopindolol] | % | 93
CN1CCC[C@@H]1Cc1c[nH]c2ccc(CCS(=O)(=O)c3ccccc3)cc12 [eletriptan] | % | 94.6
C[N+](C)(C)CCOP(=O)(O)OC[C@H](O)CO [choline-alfoscerate] | % | 101
CNc1nc(-c2ccc3c(N)n[nH]c3c2)cc(N2C[C@@H](C(=O)NC3CCCCC3)CC[C@H]2C)n1 | % | 95.9
CC(=O)C(=Cc1cc(O)c(O)c([N+](=O)[O-])c1)C(C)=O [nitecapone] | % | 96.6
CC(=O)O[C@H]1CC[C@@]2(C)C(=CC[C@@H]3[C@@H]2CC[C@]2(C)C(c4cccnc4)=CC[C@@H]32)C1 [abiraterone-acetate] | % | 99.5
COc1ccc(/C=C2\CCCN=C2c2cccnc2)c(OC)c1 [GTS21] | % | 96.2
O=c1n(CCCN2CCN(c3cccc(Cl)c3)CC2)nc2ccccn12 [trazodone] | % | 98.5
CSc1ccc(OCc2ncc([N+](=O)[O-])n2C)cc1 [fexinidazole] | % | 99.7
COc1ccc(C2C(=O)c3ccccc3C2=O)cc1 [anisindione] | % | 102

----------
Below, each entry is listed with its recorded relative viability EC50.
Test system: HepG2
Test: relative viability EC50 (midpoint between 100% and the lowest measured viability); higher = less toxic
Conditions: 72 h

compound | relative viability EC50
CC(=O)N1CCN(CCOc2ccc(C3CCN(C4=Nn5c(nnc5C(F)(F)F)CC4)CC3)cc2)CC1 [AZD3514] | 1.97 µM
Cc1cccc(-c2n[nH]cc2-c2ccc(F)c(-c3cnn(CCO)c3)c2)n1 | > 10 µM
COc1ccc(/C=C\c2cc(OC)c(OC)c(OC)c2)cc1O [combretastatin-A-4] | 0.0466 µM
O=C(NNc1ccccc1)c1ccncc1 [plurisin-1] | > 10 µM
CC[C@H]1OC(=O)[C@H](C)[C@@H](O[C@H]2C[C@@](C)(OC)[C@@H](O)[C@H](C)O2)[C@H](C)[C@@H](O[C@@H]2O[C@H](C)C[C@H](N(C)C)[C@H]2O)[C@](C)(O)C[C@@H](C)CN(C)[C@H](C)[C@@H](O)[C@]1(C)O [azithromycin] | > 10 µM
O=C1CCc2ccc(OCCCCN3CCN(c4cccc(Cl)c4Cl)CC3)cc2N1 [aripiprazole] | > 10 µM
Oc1c(Cl)cc(Cl)c2cccnc12 [chloroxine] | > 10 µM
O=C(NC(=O)c1c(F)cccc1Cl)NC1c2ccccc2-c2ccccc21 [TMN-355] | > 10 µM
c1ccc(NCc2ccc(CNc3ccccn3)cc2)nc1 [WZ811] | > 10 µM
O=C(O)c1cc(N2N=C(C(F)(F)F)/C(=C/c3ccc(-c4ccccc4)o3)C2=O)ccc1Cl [EN460] | > 10 µM
Cn1c(=O)c2[nH]c(Br)nc2n(C)c1=O [pamabrom] | > 10 µM
COc1cccc(-c2ccc(NC(=O)C3=C(C(=O)O)CCC3)c(F)c2)c1 | > 10 µM
CNCCn1c(=O)c2cc(OC)c(OC)cc2c2cnc3cc4c(cc3c21)OCO4 | 0.149 µM
